Biological target: huPD-L1 (Homo sapiens, UniProt Q9NZQ7)
Sequence (Q9NZQ7 19-290): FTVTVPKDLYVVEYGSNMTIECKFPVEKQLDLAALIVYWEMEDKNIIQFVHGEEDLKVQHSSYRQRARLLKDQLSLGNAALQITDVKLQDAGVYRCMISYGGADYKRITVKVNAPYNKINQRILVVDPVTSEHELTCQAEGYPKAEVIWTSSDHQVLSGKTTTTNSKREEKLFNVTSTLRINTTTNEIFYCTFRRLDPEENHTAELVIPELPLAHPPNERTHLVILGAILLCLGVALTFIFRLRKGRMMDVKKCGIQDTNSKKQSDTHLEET
Assay: Flow binding to CHO cells stably expressing PD-L1
Parameters: huCTLA4 and huPD-L1, full-length mammalian surface expression constructs were generated; expressed in transfected cells; host or cells: CHO cells, lentiviral transduction, sorted to >98% purity
Conditions: Table E20; MFI at 33.3 nM relative to CD80 WT IgV-Fc
measurementKind: PD-L1 Fold change to WT CD80

Q: Provide PD-L1 Fold change to WT CD80 value for the following molecule: H18Y/A26E/E35D/M47L (protein) VIHVTKEVKEVATLSCGYNVSVEELEQTRIYWQKDKKMVLTMMSGDLNIWPEYKNRTIFDITNNLSIVILALRPSDEGTYECVVLKYEKDAFKREHLAEVTLSVKAD
Result: 228.2 fold

Q: Provide PD-L1 Fold change to WT CD80 value for the following molecule: H18Y/E35D/A71G/D90G (protein) VIHVTKEVKEVATLSCGYNVSVEELAQTRIYWQKDKKMVLTMMSGDMNIWPEYKNRTIFDITNNLSIVILGLRPSDEGTYECVVLKYEKGAFKREHLAEVTLSVKAD
Result: 195.5 fold

Q: Provide PD-L1 Fold change to WT CD80 value for the following molecule: H18Y/V68M/A71G/D90G (protein) VIHVTKEVKEVATLSCGYNVSVEELAQTRIYWQKEKKMVLTMMSGDMNIWPEYKNRTIFDITNNLSIMILGLRPSDEGTYECVVLKYEKGAFKREHLAEVTLSVKAD
Result: 703.4 fold

Q: Provide PD-L1 Fold change to WT CD80 value for the following molecule: H18Y/A26E/M47L/A71G (protein) VIHVTKEVKEVATLSCGYNVSVEELEQTRIYWQKEKKMVLTMMSGDLNIWPEYKNRTIFDITNNLSIVILGLRPSDEGTYECVVLKYEKDAFKREHLAEVTLSVKAD
Result: 356.9 fold

Q: Provide PD-L1 Fold change to WT CD80 value for the following molecule: H18Y/A26E/V68M/D90G (protein) VIHVTKEVKEVATLSCGYNVSVEELEQTRIYWQKEKKMVLTMMSGDMNIWPEYKNRTIFDITNNLSIMILALRPSDEGTYECVVLKYEKGAFKREHLAEVTLSVKAD
Result: 294.6 fold

Q: Provide PD-L1 Fold change to WT CD80 value for the following molecule: A26E/E35D/V68M/D90G (protein) VIHVTKEVKEVATLSCGHNVSVEELEQTRIYWQKDKKMVLTMMSGDMNIWPEYKNRTIFDITNNLSIMILALRPSDEGTYECVVLKYEKGAFKREHLAEVTLSVKAD
Result: 160.3 fold

Q: Provide PD-L1 Fold change to WT CD80 value for the following molecule: A26E/M47L/A71G/D90G (protein) VIHVTKEVKEVATLSCGHNVSVEELEQTRIYWQKEKKMVLTMMSGDLNIWPEYKNRTIFDITNNLSIVILGLRPSDEGTYECVVLKYEKGAFKREHLAEVTLSVKAD
Result: 302.8 fold

Q: Provide PD-L1 Fold change to WT CD80 value for the following molecule: H18Y/A26E/V68M/A71G (protein) VIHVTKEVKEVATLSCGYNVSVEELEQTRIYWQKEKKMVLTMMSGDMNIWPEYKNRTIFDITNNLSIMILGLRPSDEGTYECVVLKYEKDAFKREHLAEVTLSVKAD
Result: 157.5 fold

Q: Provide PD-L1 Fold change to WT CD80 value for the following molecule: A26E/E35D/M47L/D90G (protein) VIHVTKEVKEVATLSCGHNVSVEELEQTRIYWQKDKKMVLTMMSGDLNIWPEYKNRTIFDITNNLSIVILALRPSDEGTYECVVLKYEKGAFKREHLAEVTLSVKAD
Result: 219.7 fold

Q: Provide PD-L1 Fold change to WT CD80 value for the following molecule: E35D/M47L/V68M/D90G (protein) VIHVTKEVKEVATLSCGHNVSVEELAQTRIYWQKDKKMVLTMMSGDLNIWPEYKNRTIFDITNNLSIMILALRPSDEGTYECVVLKYEKGAFKREHLAEVTLSVKAD
Result: 538.6 fold

Q: Provide PD-L1 Fold change to WT CD80 value for the following molecule: H18Y/M47L/V68M/D90G (protein) VIHVTKEVKEVATLSCGYNVSVEELAQTRIYWQKEKKMVLTMMSGDLNIWPEYKNRTIFDITNNLSIMILALRPSDEGTYECVVLKYEKGAFKREHLAEVTLSVKAD
Result: 499.3 fold

Q: Provide PD-L1 Fold change to WT CD80 value for the following molecule: M47L/V68M/A71G/D90G (protein) VIHVTKEVKEVATLSCGHNVSVEELAQTRIYWQKEKKMVLTMMSGDLNIWPEYKNRTIFDITNNLSIMILGLRPSDEGTYECVVLKYEKGAFKREHLAEVTLSVKAD
Result: 713.6 fold

Q: Provide PD-L1 Fold change to WT CD80 value for the following molecule: E35D/M47L/A71G/D90G (protein) VIHVTKEVKEVATLSCGHNVSVEELAQTRIYWQKDKKMVLTMMSGDLNIWPEYKNRTIFDITNNLSIVILGLRPSDEGTYECVVLKYEKGAFKREHLAEVTLSVKAD
Result: 276.9 fold
